- Test system: SF-295 CNS
- assayText: NCI-60 one-dose screen, 48 h
- measurementConditions: 10 µM
About 83,000 compounds went through this panel and 20% of them were active in at least one assay; those are over-represented in the sample as a whole. Active and inactive are the calls of the source. Rule for the calls: active = growth percent below 10; inactive = the rest.
Outcome codes: active, inactive

>  <compound>
NCCNc1ccc2cc(-c3nc4ccccc4[nH]3)c(=O)oc2c1

>  <assignedLabel>
inactive

$$$$
>  <compound>
C=CCNCCCN1C(=O)c2ccc3c4c(ccc(c24)C1=O)C(=O)N(CCCNCC=C)C3=O

>  <assignedLabel>
active

$$$$
>  <compound>
CCOC(=O)c1sc(Nc2ncccn2)nc1-c1ccccn1

>  <assignedLabel>
inactive

$$$$
>  <compound>
Cc1ccc2c(c1)-c1cc(C)nn1-c1ccc(C#N)cc1O2

>  <assignedLabel>
inactive

$$$$
>  <compound>
COc1ccc(-c2[nH]ncc2-c2cc(OC)c(OC)c(OC)c2)cc1

>  <assignedLabel>
active

$$$$

The origin of these recorded values is PubChem BioAssay (NCI).
